tested on: Mus musculus; assay: Total plasma concentration in CD1 mouse assessed as (2R,3R,4R,5R,6R)-5-acetamido-4-amino-2,3-difluoro-6-((1R,2R)-1,2,3-trihydroxypropyl)tetrahydro-2H-pyran-2-carboxylic acid at 30 mg/kg, po measured at 60 mins by reversed-phase UPLC/MS analysis; format: ADME, organism-based; parameters: dose 30 mg/kg, route oral; details: in vivo, 1 h
Quantity measured: concentration (nM)

# annotated cases, reported concentration shown
Chemical string: COC(=O)[C@]1(F)O[C@@H]([C@H](O)[C@H](O)COC(=O)OCC2c3ccccc3-c3ccccc32)[C@H](NC(C)=O)[C@@H](N)[C@H]1F
Output unit: nM
Value: 750
//
Chemical string: CCCCCCCCOC(=O)[C@]1(F)O[C@@H]([C@H](O)[C@H](O)CO)[C@H](NC(C)=O)[C@@H](N)[C@H]1F
Output unit: nM
Value: 7110
//
Chemical string: CC(=O)N[C@@H]1[C@@H](N)[C@@H](F)[C@](F)(C(=O)NCc2cccc(F)c2)O[C@H]1[C@H](O)[C@H](O)CO
Output unit: nM
Value: 810

(a) CCCCCCCCOC(=O)OC[C@@H](O)[C@@H](O)[C@@H]1O[C@@](F)(C(=O)OC)[C@H](F)[C@H](N)[C@H]1NC(C)=O
(b) CC(=O)N[C@@H]1[C@@H](N)[C@@H](F)[C@](F)(C(=O)NCc2ccccc2F)O[C@H]1[C@H](O)[C@H](O)CO
Task: Between item a and item b , which reported concentration is smaller? Please reply using the label of the selected record.
Output: b

(a) CC(=O)N[C@@H]1[C@@H](N)[C@@H](F)[C@](F)(C(=O)NCc2ccccc2)O[C@H]1[C@H](O)[C@H](O)CO
(b) CCC1(CC)OC[C@H]([C@@H](O)[C@@H]2O[C@@](F)(C(=O)OC)[C@H](F)[C@H](N)[C@H]2NC(C)=O)O1
Task: Between item a and item b , which reported concentration is smaller? Please reply using the label of the selected record.
Output: a
(a: 590 nM, b: 2250 nM)

Ref: ChEMBL document CHEMBL3425436
